biological target: Bromodomain-containing protein 3 (Homo sapiens) (UniProt Q15059); assay: Binding affinity of recombinant His-tagged BRD3-BD2 (unknown origin) to histone H4Ac (1 to 21 residues) K5/8/12/Ac-Biotin-OH assessed as residual binding at 10 uM incubated for 30 mins by alphascreen analysis relative to control
Sequence (Q15059 2-726 limits assumed): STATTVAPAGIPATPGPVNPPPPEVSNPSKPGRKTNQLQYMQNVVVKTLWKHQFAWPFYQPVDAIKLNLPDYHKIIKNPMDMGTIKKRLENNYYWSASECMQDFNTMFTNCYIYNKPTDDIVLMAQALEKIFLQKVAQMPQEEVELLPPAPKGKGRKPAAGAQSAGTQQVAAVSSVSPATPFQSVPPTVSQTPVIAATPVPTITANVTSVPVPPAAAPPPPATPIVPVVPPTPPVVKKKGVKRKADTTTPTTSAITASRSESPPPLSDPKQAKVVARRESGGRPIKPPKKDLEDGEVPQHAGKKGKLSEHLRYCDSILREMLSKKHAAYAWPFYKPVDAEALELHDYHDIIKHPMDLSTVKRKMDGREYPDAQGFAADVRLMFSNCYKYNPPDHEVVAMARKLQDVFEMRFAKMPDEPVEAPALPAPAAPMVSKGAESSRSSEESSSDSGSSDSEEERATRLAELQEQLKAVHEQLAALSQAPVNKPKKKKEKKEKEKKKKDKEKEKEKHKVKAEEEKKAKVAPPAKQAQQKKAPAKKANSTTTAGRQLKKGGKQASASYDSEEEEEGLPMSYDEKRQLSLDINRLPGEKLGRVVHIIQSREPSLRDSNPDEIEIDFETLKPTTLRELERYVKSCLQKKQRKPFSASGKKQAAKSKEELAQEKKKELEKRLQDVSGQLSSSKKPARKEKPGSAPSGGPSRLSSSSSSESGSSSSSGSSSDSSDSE

>  <smiles-string>
COc1ccc(-n2c(C)nn(C)c2=O)cc1OC

>  <Activity>
> 100%

$$$$
>  <smiles-string>
CCc1nn(C)c(=O)n1-c1ccc2c(c1)OCO2

>  <Activity>
> 100%

$$$$
>  <smiles-string>
CCn1nc(C)n(-c2ccc(OC)c(OC)c2)c1=O

>  <Activity>
> 100%

$$$$

====

biological target: CREB-binding protein (Homo sapiens); assay: Binding affinity of recombinant His-tagged CREBBP (unknown origin) to histone H4Ac (1 to 21 residues) K5/8/12/Ac-Biotin-OH assessed as residual binding at 10 uM incubated for 30 mins by alphascreen analysis relative to control
Listing of recorded Activity by entry.

>  <smiles-string>
Cc1nn(C)c(=O)n1-c1ccc2c(c1)OCO2

>  <Activity>
> 100%

$$$$
>  <smiles-string>
CCc1nn(C)c(=O)n1-c1ccc(F)c(Cl)c1

>  <Activity>
> 100%

$$$$
>  <smiles-string>
CCc1nn(C)c(=O)n1-c1ccc2c(c1)OCO2

>  <Activity>
97.7%

$$$$
>  <smiles-string>
COc1ccc(-n2c(C)nn(C)c2=O)cc1OC

>  <Activity>
96.3%

$$$$
>  <smiles-string>
CCc1nn(CC)c(=O)n1-c1cccc(C(F)(F)F)c1

>  <Activity>
> 100%

$$$$

====

target: Bromodomain-containing protein 3 (Homo sapiens) (UniProt Q15059); experiment: Binding affinity of recombinant His-tagged BRD3-BD1 (unknown origin) to histone H4Ac (1 to 21 residues) K5/8/12/Ac-Biotin-OH assessed as residual binding at 10 uM incubated for 30 mins by alphascreen analysis relative to control

>  <smiles-string>
COc1ccc(-n2c(C)nn(C)c2=O)cc1OC

>  <Activity>
> 100%

$$$$
>  <smiles-string>
CCn1nc(C)n(-c2ccc(F)c(Cl)c2)c1=O

>  <Activity>
> 100%

$$$$
>  <smiles-string>
CCc1nn(CC)c(=O)n1-c1cccc(C(F)(F)F)c1

>  <Activity>
> 100%

$$$$
>  <smiles-string>
CCc1nn(C)c(=O)n1-c1ccc(F)c(Cl)c1

>  <Activity>
> 100%

$$$$

====

target: Bromodomain testis-specific protein (Homo sapiens); assay: Binding affinity of recombinant His-tagged BRDT-BD1 (unknown origin) to histone H4Ac (1 to 21 residues) K5/8/12/Ac-Biotin-OH assessed as residual binding at 10 uM incubated for 30 mins by alphascreen analysis relative to control

>  <smiles-string>
COc1ccc(-n2c(C)nn(C)c2=O)cc1OC

>  <Activity>
> 100%

$$$$
>  <smiles-string>
CCn1nc(C)n(-c2ccc3c(c2)OCO3)c1=O

>  <Activity>
> 100%

$$$$
>  <smiles-string>
CCc1nn(C)c(=O)n1-c1ccc2c(c1)OCO2

>  <Activity>
> 100%

$$$$

====

biological target: Bromodomain-containing protein 2 (Homo sapiens) (UniProt P25440); experiment: Binding affinity of recombinant His-tagged BRD2-BD2 (unknown origin) to histone H4Ac (1 to 21 residues) K5/8/12/Ac-Biotin-OH assessed as residual binding at 10 uM incubated for 30 mins by alphascreen analysis relative to control
Sequence (P25440 whole entry, looked up, the tested form may be a part): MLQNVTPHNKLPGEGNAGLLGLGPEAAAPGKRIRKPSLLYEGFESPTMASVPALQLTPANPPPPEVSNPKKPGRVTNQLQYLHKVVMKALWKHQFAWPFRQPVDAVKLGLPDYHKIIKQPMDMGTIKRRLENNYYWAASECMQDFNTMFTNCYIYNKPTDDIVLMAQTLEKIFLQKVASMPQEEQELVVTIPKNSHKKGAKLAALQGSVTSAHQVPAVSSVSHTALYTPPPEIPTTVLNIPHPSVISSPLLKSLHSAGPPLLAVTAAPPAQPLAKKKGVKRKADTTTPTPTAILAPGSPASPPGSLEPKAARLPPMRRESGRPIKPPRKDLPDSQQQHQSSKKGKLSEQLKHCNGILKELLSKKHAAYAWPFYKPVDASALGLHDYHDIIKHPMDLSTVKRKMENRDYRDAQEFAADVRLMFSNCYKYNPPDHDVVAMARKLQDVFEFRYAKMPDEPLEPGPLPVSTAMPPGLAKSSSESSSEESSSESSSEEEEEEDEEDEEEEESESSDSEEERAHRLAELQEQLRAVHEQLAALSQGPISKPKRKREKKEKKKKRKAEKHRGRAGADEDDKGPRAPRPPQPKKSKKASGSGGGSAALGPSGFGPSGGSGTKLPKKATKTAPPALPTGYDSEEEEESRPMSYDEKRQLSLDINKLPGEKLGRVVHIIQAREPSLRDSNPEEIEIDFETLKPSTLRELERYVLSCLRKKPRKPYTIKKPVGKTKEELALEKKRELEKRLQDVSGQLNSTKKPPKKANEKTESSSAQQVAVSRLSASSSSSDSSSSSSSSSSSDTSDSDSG

>  <smiles-string>
CCc1nn(C)c(=O)n1-c1ccc(F)c(Cl)c1

>  <Activity>
> 100%

$$$$
>  <smiles-string>
COc1ccc(-n2c(C)nn(C)c2=O)cc1OC

>  <Activity>
> 100%

$$$$
>  <smiles-string>
CCn1nc(C)n(-c2ccc3c(c2)OCO3)c1=O

>  <Activity>
> 100%

$$$$
>  <smiles-string>
Cc1nn(C)c(=O)n1-c1ccc2c(c1)OCO2

>  <Activity>
94.4%

$$$$
>  <smiles-string>
CCn1nc(C)n(-c2ccc(F)c(Cl)c2)c1=O

>  <Activity>
> 100%

$$$$

====

Target: Bromodomain-containing protein 9 (Homo sapiens)
Sequence (whole entry): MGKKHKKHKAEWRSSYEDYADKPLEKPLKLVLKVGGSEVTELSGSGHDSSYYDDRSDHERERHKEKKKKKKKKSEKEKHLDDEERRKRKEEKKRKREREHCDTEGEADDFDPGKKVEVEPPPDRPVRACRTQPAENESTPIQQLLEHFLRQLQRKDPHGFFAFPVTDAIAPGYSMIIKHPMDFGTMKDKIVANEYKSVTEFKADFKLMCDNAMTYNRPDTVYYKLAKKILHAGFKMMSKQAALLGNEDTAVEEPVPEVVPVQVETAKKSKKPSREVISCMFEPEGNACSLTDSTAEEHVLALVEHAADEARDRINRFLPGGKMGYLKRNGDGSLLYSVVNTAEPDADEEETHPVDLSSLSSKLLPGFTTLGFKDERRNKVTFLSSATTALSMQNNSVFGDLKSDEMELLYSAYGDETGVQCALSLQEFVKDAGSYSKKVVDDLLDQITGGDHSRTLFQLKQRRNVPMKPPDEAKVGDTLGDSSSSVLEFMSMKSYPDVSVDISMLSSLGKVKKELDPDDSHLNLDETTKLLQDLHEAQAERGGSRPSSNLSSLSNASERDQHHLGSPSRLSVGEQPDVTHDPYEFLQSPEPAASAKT
Assay: Binding affinity of GST-tagged BRD9 domain (unknown origin) to histone H4Ac (1 to 21 residues) assessed as residual binding at 10 uM by alphascreen analysis relative to control
measured-parameter: Activity (%)

>  <smiles-string>
CCc1nn(CC)c(=O)n1-c1ccc(OC)c(OC)c1

>  <tested-on>
Bromodomain-containing protein 9 (Homo sapiens)

>  <censoring-operator>
>

>  <readout-number>
100

$$$$
>  <smiles-string>
CCc1n[nH]c(=O)n1-c1cccc(C(F)(F)F)c1

>  <tested-on>
Bromodomain-containing protein 9 (Homo sapiens)

>  <censoring-operator>
=

>  <readout-number>
96.1

$$$$
>  <smiles-string>
CCc1nn(C)c(=O)n1-c1ccc(F)c(Cl)c1

>  <tested-on>
Bromodomain-containing protein 9 (Homo sapiens)

>  <censoring-operator>
=

>  <readout-number>
24.3

$$$$
>  <smiles-string>
CCc1n[nH]c(=O)n1-c1ccc(C)c(C)c1

>  <tested-on>
Bromodomain-containing protein 9 (Homo sapiens)

>  <censoring-operator>
=

>  <readout-number>
97.2

$$$$
>  <smiles-string>
Cc1n[nH]c(=O)n1-c1ccc(F)c(C(F)(F)F)c1

>  <tested-on>
Bromodomain-containing protein 9 (Homo sapiens)

>  <censoring-operator>
=

>  <readout-number>
97.8

$$$$
>  <smiles-string>
Cc1nn(C)c(=O)n1-c1ccc(F)c(C(F)(F)F)c1

>  <tested-on>
Bromodomain-containing protein 9 (Homo sapiens)

>  <censoring-operator>
=

>  <readout-number>
85.3

$$$$
